- experimental_details: Solubility of the peptide pamoate in water
- Assay type: physicochemical
- setup_conditions: in H2O at 40° C.
readout: solubility

Task: Given the molecule CC(C)C[C@H](NC(=O)[C@@H](Cc1c[nH]c2ccccc12)NC(=O)[C@H](Cc1ccc(O)cc1)NC(=O)[C@H](CO)NC(=O)[C@H](Cc1c[nH]c2ccccc12)NC(=O)[C@H](Cc1c[nH]cn1)NC(=O)[C@@H]1CCC(=O)N1)C(=O)N[C@@H](CCCNC(=N)N)C(=O)N1CCC[C@H]1C(=O)NCC(N)=O [pamoate of D-Trp6-LHRH] , what is its reported solubility?
Result: < 25 µg/mL
